target.of.assay: human ether-à-go-go-related gene (hERG) potassium channel (human, UniProt Q12809)
Sequence (Q12809 whole entry, looked up): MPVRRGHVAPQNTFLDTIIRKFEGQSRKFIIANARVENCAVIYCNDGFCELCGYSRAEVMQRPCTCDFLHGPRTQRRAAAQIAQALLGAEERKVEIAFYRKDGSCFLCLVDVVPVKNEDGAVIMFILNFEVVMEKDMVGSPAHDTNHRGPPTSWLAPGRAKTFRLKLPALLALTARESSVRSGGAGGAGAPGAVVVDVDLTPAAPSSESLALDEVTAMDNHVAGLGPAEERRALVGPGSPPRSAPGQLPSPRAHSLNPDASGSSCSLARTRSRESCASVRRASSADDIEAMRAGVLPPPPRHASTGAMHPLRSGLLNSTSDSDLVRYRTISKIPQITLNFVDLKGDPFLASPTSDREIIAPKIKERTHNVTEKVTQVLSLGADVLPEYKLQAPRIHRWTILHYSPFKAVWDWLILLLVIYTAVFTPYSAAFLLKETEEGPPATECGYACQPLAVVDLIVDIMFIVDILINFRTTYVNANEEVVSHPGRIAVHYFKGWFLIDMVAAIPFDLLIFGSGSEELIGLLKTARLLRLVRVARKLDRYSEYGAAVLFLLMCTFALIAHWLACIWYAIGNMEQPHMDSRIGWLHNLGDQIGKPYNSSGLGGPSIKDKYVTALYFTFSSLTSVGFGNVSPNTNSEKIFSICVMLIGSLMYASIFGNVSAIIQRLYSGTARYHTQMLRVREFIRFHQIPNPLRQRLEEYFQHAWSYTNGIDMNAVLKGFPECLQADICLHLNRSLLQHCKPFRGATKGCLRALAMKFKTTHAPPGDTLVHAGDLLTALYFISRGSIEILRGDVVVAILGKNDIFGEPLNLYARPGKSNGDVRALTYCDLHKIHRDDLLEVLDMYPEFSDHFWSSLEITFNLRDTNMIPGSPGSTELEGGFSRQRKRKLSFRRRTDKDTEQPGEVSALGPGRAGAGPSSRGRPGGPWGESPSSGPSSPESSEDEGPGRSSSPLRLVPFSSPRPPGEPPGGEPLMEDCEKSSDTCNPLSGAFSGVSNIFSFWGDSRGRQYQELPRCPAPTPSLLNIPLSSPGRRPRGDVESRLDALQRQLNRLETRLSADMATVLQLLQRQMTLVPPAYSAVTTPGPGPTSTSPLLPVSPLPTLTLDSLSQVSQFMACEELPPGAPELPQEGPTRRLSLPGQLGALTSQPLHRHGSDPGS
experiment.notes: primary screen, population patch clamp on CHO cells stably expressing hERG; higher = less effect of the substance
Hit rate of the full screen: of about 310,000 compounds, about 2,200 (0.71%) showed an effect of 50% or more. Effects have a minus sign here. Only a selection was taken, and strong results are over-represented in it overall.
measurement.name: hERG current change (%, negative = inhibition) at 1uM (%)
One number for each entry, in %.

Illustrative cases are given below, each with its answer.
CC(Oc1ccccc1)C(=O)Nc1ccc(S(=O)(=O)N2CCCC2)cc1 (stereo not shown) = 16.8
Cc1cccn2c(=O)c3cc(C#N)c(=NC(=O)c4cccnc4)n(CC4CCCO4)c3nc12 (stereo not shown) = -10.2
Br.CCCCCCCCCCn1c2c(c(=N)c3c1CCC3)CCC2 = -71.7
CSc1ccccc1OCc1cc(C(=O)NCC(C)(C)N2CCOCC2)no1 = -72.2
Cc1ccc(CNC(=O)c2cc3c(=O)n4ccccc4nc3n(CC3CCCO3)c2=N)cc1 (stereo not shown) = -85.7
CCN(CC1CCCO1)C(=O)c1cc(COc2ccc(OC)cc2Cl)on1 (stereo not shown) = 5.36
Cl.O=S1(=O)N=C(N(CCO)/N=C/c2ccncc2)c2ccccc21 = 7.58
Oc1c(C=Nc2ccccc2)sc2ccccc12 = 12.4

// input: 5 molecules below; output: hERG current change (%, negative = inhibition) at 1uM for each
1. CC(C)Oc1cccc(C(=O)C2CCCN(C(=O)CCc3cnn(C)c3)C2)c1 (stereo not shown)
2. Br.CCCCCCCCn1c2c(c(=N)c3c1CCC3)CCCC2
3. CCc1nn(CC(=O)NCCCN2CCOCC2)c(=O)c2cc3sccc3n12
4. CCCCCCn1c(=O)[nH]c2c(c1=O)CCC2
5. COc1cc(Cl)ccc1OCc1cc(C(=O)N(C)CC2CCCCO2)no1 (stereo not shown)

Found:
1. 10.7
2. -84.6
3. 15.6
4. 11.6
5. 2.24

// input: 3 molecules below; output: hERG current change (%, negative = inhibition) at 1uM for each
1. COC(=O)c1cc2ccsc2n1Cc1ccccc1F
2. CCCn1c2c(c(=N)c3c1CCC3)CCCC2.I
3. N=c1c(C(=O)NCc2ccc3c(c2)OCO3)cc2c(=O)n3ccccc3nc2n1CC1CCCO1 (stereo not shown)

Found:
-2.01
6.36
-84.2
